Sourced from a melting point compilation (Tetko et al.; mined from patent text by program, amines drawn as free bases though some values may be those of a salt)

PROPERTY_MEASURED: melting point

Solved entries (count: 5):
CCCCCN1CC[C@@H](c2ccccc2Br)[C@H](CO)C1 (racemic) :: 119 to 120 °C
Nc1nc(OCc2ccccc2)c2ncn(CC(=O)O)c2n1 :: 159 to 165 °C
CCCC(=O)Nc1n[nH]c2cc(Cl)c(Br)cc12 :: 250 °C
NC(=O)c1c(Cl)c(-c2ccccc2)n2c1CN(S(=O)(=O)c1ccc(Cl)cc1)CC2 :: 123 to 125 °C
CCOc1cc(C)nc(-n2ccnc2)n1 :: 116 °C

Req: Sample `COc1ccc(-c2cc3ncccc3c(Cl)n2)cc1` — what was its melting point?
Resp: 126 to 127 °C

Req: Sample CC#CCOc1ccc(SC(C(=O)NO)c2ccc3ccccc3c2)cc1 (configuration not stated) — what was its melting point?
Resp: 148 °C

====

PROPERTY_MEASURED: melting point

Solved entries (count: 4):
O=C(O)Cc1cccc(C(=O)c2ccc(OCc3ccc4ccccc4n3)cc2)c1 :: 146 to 147 °C
O=C(O)Cc1nc(-c2ccc(F)cc2)oc1-c1cccs1 :: 208 to 209 °C
CCCOc1ccccc1-c1[nH]c(=O)c(C#N)cc1C :: 213 °C
COC(=O)C(Cc1ccccc1)Oc1ccc2cc(-c3csc(-c4ccccc4)n3)ccc2c1Br (stereo not given) :: 96 to 101 °C

Next up:
Req: Sample `CC1(C)C(=O)Nc2ccc(-c3cccc([N+](=O)[O-])c3)cc21` — what was its melting point?
Resp: 234 to 235 °C

====

Reported melting point values are given for each entry in this list.

Solved entries (count: 5):
COC(=O)[C@@H](Cc1ccccc1)NC(=O)OCc1cc2cc(-c3ccccc3)ccc2[nH]1 :: 142 to 143 °C
CC(=O)NCCc1cn(S(=O)(=O)c2c(Cl)nc3sccn23)c2ccccc12 :: 150 to 152 °C
CCN(CC)c1c(C(=O)O)ccc(OC)c1OC :: 57 to 62 °C
O=C(O)c1ccc(N2C(=O)C3C4C=CC(CC4)C3C2=O)cc1 (stereo not given) :: 269 °C
Cc1c(C(=O)O)cnn1-c1ccc(F)cc1F :: 183 to 184 °C

Req: Sample `COc1ccc2[nH]c3ccccc3c2c1` — what was its melting point?
Resp: 148 to 150 °C

Req: Sample `Clc1nc(N2CCOCC2)c2nnn(C3CCOCC3)c2n1` — what was its melting point?
Resp: 142 °C

Req: Sample `COc1cc(COc2nc(-c3ccccc3)ncc2C=O)ccc1OCc1nc(-c2ccco2)oc1C` — what was its melting point?
Resp: 143 to 144 °C

Req: Sample `O=c1cc(NCCN2CCN(c3cc(Cl)cc4c3OCCO4)CC2)cn[nH]1` — what was its melting point?
Resp: 115 to 117 °C

Req: Sample `Cc1ccc2nc(-c3cc(C(F)(F)C(F)(F)F)nn3-c3ccc(S(C)(=O)=O)cc3)sc2c1` — what was its melting point?
Resp: 195 to 196 °C

====

Reported melting point values are given for each entry in this list.

O=c1[nH]c2cc(Cl)ccc2c(O)c1-c1cccc2ccccc12 :: > 350 °C
Cc1[nH]c(=S)n(Nc2ccccc2)c1C :: 217 to 219 °C
CC(=O)c1ccc(S(=O)(=O)Nc2cc(C)on2)cc1 :: 189 to 190 °C

Req: Sample `CCOP(=O)(OCC)/C(O)=C/c1cn(-c2ccccc2)nc1OCc1ccc(OCc2nc(-c3ccco3)oc2C)c(OC)c1` — what was its melting point?
Resp: 147 to 149 °C

Req: Sample CCCC1NCCc2ccc(NC(=N)c3cccs3)cc21 (stereo not given) — what was its melting point?
Resp: 127 to 128 °C

Req: Sample CC(=O)OC1CSC(Oc2cncc(-c3c(C)noc3C)c2)C(OC(C)=O)C1OC(C)=O (stereo not given) — what was its melting point?
Resp: 129 to 131 °C

Req: Sample `O=C(Nc1ccccc1)C1=C(O)c2ccccc2N(c2ccccc2)C1` — what was its melting point?
Resp: 120 °C

Req: Sample CN(C(=O)c1ccc2nonc2c1)C1CCCC(=O)C1 (stereo not given) — what was its melting point?
Resp: 164 to 165 °C

Req: Sample `CCCCc1nn(-c2cccc([N+](=O)[O-])c2)c(=O)n1Cc1ccc(-c2ccccc2S(N)(=O)=O)cc1` — what was its melting point?
Resp: 73 to 76 °C

Req: Sample CC1CC2(CN(O)C2=O)c2cc(F)ccc2O1 (stereo not given) — what was its melting point?
Resp: 118 to 120 °C

====

PROPERTY_MEASURED: melting point

Solved entries (count: 4):
O=C1C(=O)N(c2ccc(Cl)cc2[N+](=O)[O-])C(=O)N1c1cccc(Cl)c1 :: 133 °C
O=C(Cn1ccnc1)C12CC3CC(CC(C3)C1)C2 :: 130 °C
CC(C)c1c(I)sc2ncc(C#N)c(Cl)c12 :: 177 to 179 °C
CC(C(=O)O)c1ccc2oc(Cc3ccc(F)cc3)nc2c1 (centres undefined) :: 91 to 93 °C

Req: Sample `NC(=O)N1CCC(O[N+](=O)[O-])CC1` — what was its melting point?
Resp: 110 to 111 °C

Req: Sample `CCCOc1ccc(-c2ccc3c(c2)C=C(C(=O)Nc2ccc(CN(C)C4CCOCC4)cc2)CCS3(=O)=O)cc1` — what was its melting point?
Resp: 244 to 247 °C

Req: Sample `COC[C@H]1CCCN1C(=O)c1cc(-c2ccccc2)c(=O)n2c1-c1ccccc1C2` — what was its melting point?
Resp: 130 to 131 °C

Req: Sample `CN(C)CCN(C(=O)c1cccc([N+](=O)[O-])c1Br)c1ccnc2cc3c(cc12)OCO3` — what was its melting point?
Resp: 96 to 97 °C

Req: Sample CCn1c(=O)n(OCc2ccccc2)c(=O)c2cc(F)c(N3CCC(NC(=O)OC(C)(C)C)C3)nc21 (centres undefined) — what was its melting point?
Resp: 157 to 159 °C

====

PROPERTY_MEASURED: melting point

Solved entries (count: 2):
O=C(Nc1ccc(Oc2ccnc(N3CCC4(CC3)OCCO4)n2)c2ccccc12)c1cc(F)cc(N2CCCCC2)c1 :: 195 to 196 °C
c1cnc2cc[nH]c2c1 :: 126 to 128 °C

Req: Sample `O=c1cc(C(F)(F)F)nc(Cl)n1-c1cc(Oc2ncccn2)c(Cl)cc1F` — what was its melting point?
Resp: 132 to 134 °C

Req: Sample `NC(=O)c1cccc(-c2c(F)ccc3cc(Cc4cccc(C(F)(F)F)c4)sc23)c1` — what was its melting point?
Resp: 166 to 167 °C

Req: Sample CCOC(=O)C1=C(COCc2nccn2C)NC(C)=C(C(=O)OC)C1c1ccccc1Cl (centres undefined) — what was its melting point?
Resp: 137 to 138 °C

Req: Sample CCN(CC)CC(O)c1c(OC)ccc2c(C)c(C)oc12 (centres undefined) — what was its melting point?
Resp: 55 °C

Req: Sample Cc1ccc(S(=O)(=O)N2CCc3ccccc3C(Oc3ccc(C(F)(F)F)cc3)C2)cc1 (centres undefined) — what was its melting point?
Resp: 114 to 115 °C

Req: Sample `CN(Cc1cn(C23CC4CC(CC(C4)C2)C3)nn1)Cc1cccs1` — what was its melting point?
Resp: 66 to 68 °C

Req: Sample COc1cccc(CNS(=O)(=O)c2ccc(C(CC3CCCC3)C(=O)Nc3nc4ccc(OC)nc4s3)cc2)c1 (centres undefined) — what was its melting point?
Resp: 179 to 181 °C

====

PROPERTY_MEASURED: melting point

COc1ccc(CN2Cc3cc(N(C)C)ccc3N=C2N)cc1 :: 175 to 180 °C

Req: Sample `CCCCCCCCCCCCCCOc1ccc(CC(=O)O)cc1` — what was its melting point?
Resp: 86 to 87 °C

Req: Sample `CCCCCCCCCCOc1ccc2c(c1CCC)OC(CCC(=O)O)(CCC(=O)O)CC2=O` — what was its melting point?
Resp: 144 to 146 °C

Req: Sample `CCCNC(=O)C(C)=Cc1ccc2c(c1)c(Cc1ccc(C(=O)OC)cc1OC)cn2CC(=O)N(C)C` — what was its melting point?
Resp: 117 to 118 °C

Req: Sample `Cn1ncc(/C=C/C(=O)Nc2ccc(CCc3cscn3)cc2)c1-c1ccc(F)cc1` — what was its melting point?
Resp: 211 to 212 °C

Req: Sample `CCCc1nnc(/C=C/c2cc(OCc3ccc(OCc4nc(-c5ccco5)oc4C)c(OC)c3)nn2-c2ccccc2)o1` — what was its melting point?
Resp: 107 to 108 °C

Req: Sample `NC(=O)N(c1ccc(C(F)(F)F)cc1)c1nc(Cl)cc(Cl)n1` — what was its melting point?
Resp: 99 to 101 °C

Req: Sample `CCCCCOc1ccc(CO)cc1OC(C)=O` — what was its melting point?
Resp: 35 to 36 °C

Req: Sample CC1CCC(Nc2nccc(Oc3ccc(NC(=O)c4cc(F)cc(N5CCCCC5)c4)c4ccccc34)n2)CC1 (centres undefined) — what was its melting point?
Resp: 101 to 102 °C
